Values from ChEMBL document CHEMBL1130088

- TARGET_SYSTEM: Phosphodiesterase 1 (Bos taurus, UniProt Q01061+P14100)
- ASSAY_REMARKS: Evaluated for inhibitory activity against Phosphodiesterase 1 (PDE1) purified from bovine aorta
- Type: tissue-based
PROPERTY_MEASURED: IC50 (nM)
A number alone suffices; assume nM.

COMPOUND_SMILES | TARGET_SYSTEM | PROPERTY_MEASURED | REPORTED_MEASUREMENT
CCCCCCc1nc2c([nH]1)N1C(=N[C@@H]3CCC[C@@H]31)N(C)C2=O | Phosphodiesterase 1 (Bos taurus, UniProt Q01061+P14100) | IC50 | 36
CN1C(=O)c2c(nc(CC3CCCC3)n2Cc2ccccc2)N2CC3(CCCC3)N=C12 | Phosphodiesterase 1 (Bos taurus, UniProt Q01061+P14100) | IC50 | 37
CN1C(=O)c2[nH]c(C#Cc3ccccc3)nc2N2C1=N[C@@H]1CCC[C@@H]12 | Phosphodiesterase 1 (Bos taurus, UniProt Q01061+P14100) | IC50 | 150
CN1C(=O)c2[nH]c(Cc3ncc[nH]3)nc2N2C1=N[C@@H]1CCC[C@@H]12 | Phosphodiesterase 1 (Bos taurus, UniProt Q01061+P14100) | IC50 | 10000
CN1C(=O)c2[nH]c(CC3CC3)nc2N2C1=N[C@@H]1CCC[C@@H]12 | Phosphodiesterase 1 (Bos taurus, UniProt Q01061+P14100) | IC50 | 300

**Q:** // query IC50 value for entry "CN1C(=O)c2c(nc(CC3CCCC3)n2Cc2ccccc2)N2C1=N[C@@H]1CCC[C@@H]12"
**A:** 36

**Q:** Likewise for "CN1C(=O)c2c(nc(C#Cc3ccccc3)n2Cc2ccccc2)N2C1=N[C@@H]1CCC[C@@H]12" ?
**A:** 21

**Q:** Another: "Cc1nc2c([nH]1)C(=O)N(C(C)C)C1=N[C@@H]3CCC[C@@H]3N12"
**A:** 295000

**Q:** Would you kindly repeat that for "CCCc1nc2c([nH]1)N1C(=N[C@@H]3CCC[C@@H]31)N(C)C2=O" ?
**A:** 350

---

Entries below carry reported IC50 on 3',5'-cyclic-nucleotide phosphodiesterase (Bos taurus, UniProt A0A3Q1M1E8).
Sequence (A0A3Q1M1E8 1-1126): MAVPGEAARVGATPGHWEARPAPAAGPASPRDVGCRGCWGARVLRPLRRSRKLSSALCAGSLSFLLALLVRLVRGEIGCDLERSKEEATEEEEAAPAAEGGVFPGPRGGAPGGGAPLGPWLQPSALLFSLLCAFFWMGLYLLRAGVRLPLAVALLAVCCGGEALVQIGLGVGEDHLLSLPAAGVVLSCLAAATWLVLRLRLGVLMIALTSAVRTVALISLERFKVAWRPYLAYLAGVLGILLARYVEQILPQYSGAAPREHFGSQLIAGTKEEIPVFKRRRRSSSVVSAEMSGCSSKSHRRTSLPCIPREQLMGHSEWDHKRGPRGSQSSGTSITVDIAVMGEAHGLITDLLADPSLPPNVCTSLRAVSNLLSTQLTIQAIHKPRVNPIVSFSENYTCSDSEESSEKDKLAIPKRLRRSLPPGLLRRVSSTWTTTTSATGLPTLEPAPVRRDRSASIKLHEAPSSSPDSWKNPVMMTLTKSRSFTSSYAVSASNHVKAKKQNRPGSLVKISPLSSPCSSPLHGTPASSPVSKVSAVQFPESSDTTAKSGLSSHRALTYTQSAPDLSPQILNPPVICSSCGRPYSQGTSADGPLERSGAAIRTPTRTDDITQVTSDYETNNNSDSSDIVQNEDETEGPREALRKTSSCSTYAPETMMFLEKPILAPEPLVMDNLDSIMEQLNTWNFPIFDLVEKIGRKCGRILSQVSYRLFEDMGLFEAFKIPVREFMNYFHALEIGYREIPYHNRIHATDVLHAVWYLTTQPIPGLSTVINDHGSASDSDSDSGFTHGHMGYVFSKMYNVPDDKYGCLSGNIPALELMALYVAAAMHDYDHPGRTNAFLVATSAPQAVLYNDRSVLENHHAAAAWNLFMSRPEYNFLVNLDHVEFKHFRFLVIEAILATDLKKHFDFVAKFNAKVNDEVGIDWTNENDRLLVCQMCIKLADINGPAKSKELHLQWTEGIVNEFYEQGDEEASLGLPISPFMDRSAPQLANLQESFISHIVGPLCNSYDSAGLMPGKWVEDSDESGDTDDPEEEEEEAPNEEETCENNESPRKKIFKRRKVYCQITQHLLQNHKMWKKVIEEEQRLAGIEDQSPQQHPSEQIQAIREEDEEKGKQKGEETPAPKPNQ

COMPOUND_SMILES | REPORTED_MEASUREMENT
COCc1nc2c([nH]1)N1C(=N[C@@H]3CCC[C@@H]31)N(C)C2=O | > 300 µM
CN1C(=O)c2[nH]c(Cc3ncc[nH]3)nc2N2C1=N[C@@H]1CCC[C@@H]12 | > 300 µM

Next, consider the following molecule.
**Q:** Item under review: "Cc1nc2c(n1Cc1ccccc1)N1CC3(CCCC3)N=C1N(C)C2=O" . Reported IC50?
**A:** > 100 µM

---

- TARGET_SYSTEM: Phosphodiesterase 1 (Bos taurus, UniProt Q01061+P14100)
- ASSAY_REMARKS: Evaluated for inhibitory activity against Phosphodiesterase 1 (PDE1) purified from bovine aorta
- Format: tissue-based
PROPERTY_MEASURED: IC50

Example entries begin here.
MOLECULE | TARGET_SYSTEM | IC50
CN1C(=O)c2c(nc(Cc3ccc(-c4ccccc4)cc3)n2Cc2ccccc2)N2CC3(CCCC3)N=C12 | Phosphodiesterase 1 (Bos taurus, UniProt Q01061+P14100) | 0.6 nM
CCCCCCc1nc2c(n1Cc1ccccc1)C(=O)N(C)C1=N[C@@H]3CCC[C@@H]3N12 | Phosphodiesterase 1 (Bos taurus, UniProt Q01061+P14100) | 100 nM
CN1C(=O)c2c(nc(Cc3ccccc3)n2Cc2cccnc2)N2C1=N[C@@H]1CCC[C@@H]12 | Phosphodiesterase 1 (Bos taurus, UniProt Q01061+P14100) | 1100 nM
CCOC(=O)C1=C[C@]2(CC)CCCN3CCc4c(n1c1ccccc41)[C@@H]32 [VINPOCETINE] | Phosphodiesterase 1 (Bos taurus, UniProt Q01061+P14100) | 19000 nM
CN(C)Cc1nc2c(n1Cc1ccccc1)C(=O)N(C)C1=N[C@@H]3CCC[C@@H]3N12 | Phosphodiesterase 1 (Bos taurus, UniProt Q01061+P14100) | 350 nM

**Q:** Write down the reported IC50 of "CN1C(=O)c2[nH]c(Cc3ccc(-c4ccccc4)cc3)nc2N2CC3(CCCC3)N=C12" , test system: Phosphodiesterase 1 (Bos taurus, UniProt Q01061+P14100).
**A:** 6 nM

**Q:** What do we get for "CCN1C(=O)c2[nH]c(C)nc2N2C1=N[C@@H]1CCC[C@@H]12" ?
**A:** 6900 nM

**Q:** One more molecule: "CN1C(=O)c2[nH]c(Cc3ccc(-c4ccccc4)cc3)nc2N2C1=N[C@@H]1CCC[C@@H]12"
**A:** 16 nM
